Sourced from patent US10710996B2

Would you kindly list AUC(0-inf) for each of these compounds?
- procedure summary: Pharmacokinetic test in rats
- Assay type: in vivo, Sprague-Dawley rats
- reported conditions: male, Sprague-Dawley, plasma; rat, intravenous 5 mg/kg, mean

AUC(0-inf) measured on "O=C(Nc1ccc(F)cc1)C1(C(=O)Nc2ccc(Oc3ccnc4cc(OCCCN5CCOCC5)ncc34)c(F)c2)CC1" = 8810 ng·h/mL

AUC(0-inf) measured on "O=C(Nc1ccc(F)cc1)C1(C(=O)Nc2ccc(Oc3ccnc4cc(OCCN5CCOCC5)ncc34)c(F)c2)CC1" = 16000 ng·h/mL

---

- assayed target: c-Met kinase (Homo sapiens, UniProt P08581)
- Construct: c-Met kinase domain recombinant protein diluted with 49 μL of the reaction buffer was added
- Sequence (P08581 1078-1345 limits assumed): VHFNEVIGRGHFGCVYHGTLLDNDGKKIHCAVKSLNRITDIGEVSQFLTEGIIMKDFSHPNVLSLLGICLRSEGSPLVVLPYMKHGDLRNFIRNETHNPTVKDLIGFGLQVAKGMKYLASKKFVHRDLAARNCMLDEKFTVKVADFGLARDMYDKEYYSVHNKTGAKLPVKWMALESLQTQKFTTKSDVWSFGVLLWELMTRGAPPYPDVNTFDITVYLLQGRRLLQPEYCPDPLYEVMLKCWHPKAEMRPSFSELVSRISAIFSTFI
- procedure summary: Inhibitory effect on c-Met kinase activity at molecular level (ELISA);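 note: recombinant c-Met kinase domain with 5 µM ATP, 1 h at 37 °C, substrate phosphorylation detected by anti-phosphotyrosine PY99 ELISA at 490 nm versus DMSO negative control, ATP-free wells as blank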
Would you kindly list IC50 for each of these compounds?

Per the reported c-Met kinase (Homo sapiens, UniProt P08581) data, O=C(Nc1ccc(F)cc1)C1(C(=O)Nc2ccc(Oc3ccnc4c(Br)c(OCCN5CCOCC5)ncc34)c(F)c2)CC1 [Compound 6S] has IC50 of 10 to 100 nM

Per the reported c-Met kinase (Homo sapiens, UniProt P08581) data, CC(C)n1cc(-c2cc3nccc(Oc4ccc(NC(=O)C5(C(=O)Nc6ccc(F)cc6)CC5)cc4F)c3cn2)cn1 [Compound 41S] has IC50 of 1 to 10 nM

Per the reported c-Met kinase (Homo sapiens, UniProt P08581) data, O=C(Nc1ccc(F)cc1)C1(C(=O)Nc2ccc(Oc3ccnc4ncc(OCCCN5CCOCC5)nc34)c(F)c2)CC1 [Compound 68S] has IC50 of 1000 to 10000 nM

Per the reported c-Met kinase (Homo sapiens, UniProt P08581) data, O=C(Nc1ccc(F)cc1)C1(C(=O)Nc2ccc(Oc3ccnc4ncc(Cl)nc34)c(F)c2)CC1 [Compound 56S] has IC50 of 100 to 1000 nM

---

Would you kindly list pIC50 for each of these compounds?
- Test system: EBC-1 cells
- procedure summary: Inhibition of c-Met-mediated EBC-1 cell proliferation (SRB staining)
- Assay type: cell-based
- reported conditions: Homo sapiens, 72 hours treatment
pIC50: −log10 of the molar value.

pIC50 measured on O=C(Nc1ccc(F)cc1)C1(C(=O)Nc2ccc(Oc3ccnc4ncc(OCCN5CCOCC5)nc34)c(F)c2)CC1 [Compound 67S] = 5.00 to 6.00

pIC50 measured on O=C(Nc1ccc(F)cc1)C1(C(=O)Nc2ccc(Oc3ccnc4ncc(Cl)nc34)c(F)c2)CC1 [Compound 56S] = 5.00 to 6.00

pIC50 measured on O=C(Nc1ccc(F)cc1)C1(C(=O)Nc2ccc(Oc3ccnc4nc(N5CCNCC5)cnc34)c(F)c2)CC1 [Compound 64S] = 5.00 to 6.00

pIC50 measured on "O=C(Nc1ccc(F)cc1)C1(C(=O)Nc2ccc(Oc3ccnc4cc(OCCN5CCOCC5)ncc34)c(F)c2)CC1" = 7.00 to 8.00

pIC50 measured on CC(C)n1cc(-c2cc3nccc(Oc4ccc(NC(=O)C5(C(=O)Nc6ccc(F)cc6)CC5)cc4F)c3cn2)cn1 [Compound 41S] = 8.00 to 9.00

pIC50 measured on O=C(Nc1ccc(F)cc1)C1(C(=O)Nc2ccc(Oc3ccnc4cc(OCCN5CCOCC5)ncc34)cc2)CC1 [Compound 12S] = 6.00 to 7.00

pIC50 measured on O=C(Nc1ccc(F)cc1)C1(C(=O)Nc2ccc(Oc3ccnc4cc(-c5cn[nH]c5)ncc34)c(F)c2)CC1 [Compound 39S] = 8.00 to 9.00

pIC50 measured on O=C(Nc1ccc(Oc2ccnc3cc(OCCN4CCOCC4)ncc23)c(F)c1)c1cccn(-c2ccc(F)cc2)c1=O [Compound 15S] = 7.00 to 8.00

pIC50 measured on O=C(Nc1ccc(F)cc1)C1(C(=O)Nc2ccc(Oc3ccnc4cc(-c5cnn(C6CCNCC6)c5)ncc34)c(F)c2)CC1 [Compound 42S] = 8.00 to 9.00

pIC50 measured on "CN(C)c1cc2nccc(Oc3ccc(NC(=O)C4(C(=O)Nc5ccc(F)cc5)CC4)cc3F)c2cn1" = 7.00 to 8.00

pIC50 measured on O=C(Nc1ccc(F)cc1)C1(C(=O)Nc2ccc(Oc3ccnc4cc(-c5ccc(F)c(F)c5)ncc34)c(F)c2)CC1 [Compound 49S] = 7.00 to 8.00

pIC50 measured on O=C(Nc1ccc(F)cc1)C1(C(=O)Nc2ccc(Oc3ccnc4cc(-c5ccncc5)ncc34)c(F)c2)CC1 [Compound 46S] = 6.00 to 7.00

pIC50 measured on CC(C)N1CCC(n2cc(-c3cc4nccc(Oc5ccc(NC(=O)C6(C(=O)Nc7ccc(F)cc7)CC6)cc5F)c4cn3)cn2)CC1 [Compound 43S] = 6.00 to 7.00

pIC50 measured on O=C(Nc1ccc(Oc2ccnc3cc(OCCN4CCOCC4)ncc23)c(F)c1)c1c[nH]cc(-c2ccccc2)c1=O [Compound 20S] = 7.00 to 8.00

pIC50 measured on O=C(Nc1ccc(F)cc1)C1(C(=O)Nc2ccc(Oc3ccnc4nc(Cl)cnc34)c(F)c2)CC1 [Compound 55S] = 5.00 to 6.00

pIC50 measured on COc1cc(NC(=O)C2(C(=O)Nc3ccc(Oc4ccnc5cc(OCCN6CCOCC6)ncc45)c(F)c3)CC2)ccc1F [Compound 24S] = 6.00 to 7.00

pIC50 measured on Cn1cc(-c2cc3nccc(Oc4ccc(NC(=O)C5(C(=O)Nc6ccc(F)cc6)CC5)cc4F)c3cn2)cn1 [Compound 38S] = 8.00 to 9.00

pIC50 measured on O=C(Nc1ccc(F)cc1)C1(C(=O)Nc2ccc(Oc3ccnc4cc(OCCc5ccncc5)ncc34)c(F)c2)CC1 [Compound 25S] = 6.00 to 7.00

pIC50 measured on O=C(Nc1ccc(F)cc1)C1(C(=O)Nc2ccc(Oc3ccnc4cc(-c5cncnc5)ncc34)c(F)c2)CC1 [Compound 47S] = 7.00 to 8.00

pIC50 measured on O=C(Nc1ccc(F)cc1)C1(C(=O)Nc2ccc(Oc3ccnc4nc(NCCCN5CCOCC5)cnc34)c(F)c2)CC1 [Compound 62S] = 5.00 to 6.00

pIC50 measured on O=C(Nc1ccc(F)cc1)C1(C(=O)Nc2ccc(Oc3ccnc4nc(OCCN5CCOCC5)cnc34)c(F)c2)CC1 [Compound 60S] = 5.00 to 6.00

pIC50 measured on "O=C(Nc1ccc(F)cc1)C1(C(=O)Nc2ccc(Oc3ccnc4cc(OCCCN5CCOCC5)ncc34)c(F)c2)CC1" = 7.00 to 8.00

pIC50 measured on CC(CN1CCOCC1)Oc1cc2nccc(Oc3ccc(NC(=O)C4(C(=O)Nc5ccc(F)cc5)CC4)cc3F)c2cn1 (stereo not shown) [Compound 26S] = 6.00 to 7.00

pIC50 measured on O=C(Nc1ccc(F)cc1)C1(C(=O)Nc2ccc(Oc3ccnc4nc(N5CCOCC5)cnc34)c(F)c2)CC1 [Compound 57S] = 5.00 to 6.00

pIC50 measured on O=C(Nc1ccc(F)cc1)C1(C(=O)Nc2ccc(Oc3ccnc4ncc(N5CCNCC5)nc34)c(F)c2)CC1 [Compound 65S] = 5.00 to 6.00

pIC50 measured on "O=C(Nc1ccc(F)cc1)C1(C(=O)Nc2ccc(Oc3ccnc4cc(Cl)ncc34)c(F)c2)CC1" = 6.00 to 7.00

pIC50 measured on Cn1cc(-c2cc3nccc(Oc4ccc(NC(=O)c5c[nH]cc(-c6ccc(F)cc6)c5=O)cc4F)c3cn2)cn1 [Compound 54S] = 7.00 to 8.00

pIC50 measured on O=C(Nc1ccc(F)cc1)C1(C(=O)Nc2ccc(Oc3ccnc4ncc(N5CCOCC5)nc34)c(F)c2)CC1 [Compound 58S] = 5.00 to 6.00
